test system: Septoria tritici—SEPTTR; assay: Leaf Blotch of Wheat, in vivo whole plant, 24 Hour Protectant; conditions: Zymoseptoria tritici; wheat (cultivar Yuma), sprayed at 100 ppm, inoculated after 24 hours; control of fungal infection vs untreated plants; read-out: SEPTTR in vivo 1 Day Protectant

Compound | pest or weed control at 100 ppm
COc1ccnc(C(=O)NC2CC(C)(C)CCCC2C)c1O (stereo not shown) [Compound 277] | 75 to 100%
COc1ccnc(C(=O)N[C@@H]2C[C@@H](O[Si](C)(C)C(C)(C)C)O[C@@H](C)[C@@H]2OC)c1O [Compound 326] | 75 to 100%
COc1ccnc(C(=O)N[C@H]2CC3CC2[C@@H](COCc2cccc(C(F)(F)F)c2)C3)c1O (stereo partly shown) [Compound 295] | 75 to 100%
CCC(C)C(=O)O[C@H]1[C@H](C)OC(=O)[C@@H](NC(=O)c2nccc(OC)c2O)COC(=O)[C@@H]1Cc1ccccc1 (stereo partly shown) [Compound 389] | 25 to 74%
COc1ccnc(C(=O)NC2CC(C)(C)/C=C\CC(C)(C)C2)c1O (stereo not shown) [Compound 283] | 75 to 100%
COc1ccnc(C(=O)NCC#Cc2ccccc2)c1O [Compound 240] | 75 to 100%
CCC1(C)CC(NC(=O)c2nccc(OC)c2O)CC(C)(C)C1 (stereo not shown) [Compound 251] | 75 to 100%
COC(=O)C(COC(=O)C(CO[Si](C)(C)C(C)(C)C)Cc1ccccc1)NC(=O)c1nccc(OC)c1O (stereo not shown) [Compound 350] | < 25%
COc1ccnc(C(=O)NC2CC(C)(C)C(Oc3cc(C(F)(F)F)cc(C(F)(F)F)n3)C(C)(C)C2)c1O (stereo not shown) [Compound 272] | 75 to 100%
Cc1ccnc(C(=O)NC2C(=O)OC(=O)[C@H](Cc3ccccc3)[C@@H](OC(=O)C(C)C)[C@H](C)OC2=O)c1O (stereo partly shown) [Compound 237] | 25 to 74%
